Sourced from paper PMC7736042

biological target: bovine carbonic anhydrase-II (bCA-II) (Bos taurus)
Sequence (P00921 whole entry): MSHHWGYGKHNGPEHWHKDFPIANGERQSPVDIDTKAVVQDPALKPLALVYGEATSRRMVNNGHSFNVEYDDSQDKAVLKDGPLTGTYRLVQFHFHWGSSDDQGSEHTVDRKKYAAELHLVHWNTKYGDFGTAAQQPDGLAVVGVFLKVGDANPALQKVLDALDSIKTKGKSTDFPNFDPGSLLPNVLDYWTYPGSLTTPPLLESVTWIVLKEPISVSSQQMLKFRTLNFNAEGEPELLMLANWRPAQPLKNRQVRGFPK
READOUT LABEL: IC50 (µM)

Solved cases below.
Query string: # IC50 lookup, item Nn1c(-c2ccccc2[N+](=O)[O-])nc2ccccc2c1=O [Compound 4c]
Result string: 11.7

Query string: # IC50 lookup, item COc1cc(-c2nc3ccccc3c(=O)n2N)cc(OC)c1OC [Compound 4p]
Result string: 26.8

Query string: # IC50 lookup, item Cc1ccc(-c2nc3ccccc3c(=O)n2N)cc1 [Compound 4h]
Result string: 38

Query string: # IC50 lookup, item Nn1c(-c2ccccc2Br)nc2ccccc2c1=O [Compound 4f]
Result string: 17.9

Query string: # IC50 lookup, item Nn1c(-c2ccc([N+](=O)[O-])cc2)nc2ccccc2c1=O [Compound 4e]
Result string: 9.1

[a] Nn1c(-c2cccc([N+](=O)[O-])c2)nc2ccccc2c1=O [Compound 4d]
[b] Nn1c(-c2cccc(Cl)c2)nc2ccccc2c1=O [Compound 4m]
[c] Nn1c(-c2ccc(Br)cc2)nc2ccccc2c1=O [Compound 4g]
Query string: List the 3 entries from lowest IC50 to highest IC50 value. # respond with the labels, arranged in the requested order
Result string: b, a, c

----------
target: human carbonic anhydrase-II (hCA-II) (Homo sapiens)
READOUT LABEL: IC50 (µM)

Query string: # IC50 lookup, item `Nn1c(-c2ccc([N+](=O)[O-])cc2)nc2ccccc2c1=O`
Result string: 39.9

[P] COc1ccc(-c2nc3ccccc3c(=O)n2N)cc1
[Q] Nn1c(-c2ccccc2)nc2ccccc2c1=O
Query string: Of P and Q , whose reported IC50 is the larger number? Indicate your choice by writing its label.
Result string: Q

----------
molecular target: human carbonic anhydrase-II (hCA-II) (Homo sapiens); test: In-vitro hCA-II inhibition, spectrophotometric p-nitrophenyl acetate assay; assay type: biochemical; settings: hCA-II; 0.5 mM
READOUT LABEL: inhibition at 500 µM (%)

Solved cases below.
Query string: # inhibition at 500 µM lookup, item `Nn1c(-c2ccc(Br)cc2)nc2ccccc2c1=O`
Result string: 85.3

Query string: # inhibition at 500 µM lookup, item `Nn1c(-c2ccc(Cl)cc2)nc2ccccc2c1=O`
Result string: 24.3

Query string: # inhibition at 500 µM lookup, item `Nn1c(-c2ccc([N+](=O)[O-])cc2)nc2ccccc2c1=O`
Result string: 92.7

Query string: # inhibition at 500 µM lookup, item `COc1cc(-c2nc3ccccc3c(=O)n2N)cc(OC)c1OC`
Result string: 27.4

Query string: # inhibition at 500 µM lookup, item `Nn1c(-c2cccc(Cl)c2)nc2ccccc2c1=O`
Result string: 30.5

Query string: # inhibition at 500 µM lookup, item `Nn1c(-c2ccccc2Br)nc2ccccc2c1=O`
Result string: 98.9

Query string: # inhibition at 500 µM lookup, item `Nn1c(-c2cccc(F)c2)nc2ccccc2c1=O`
Result string: 28.1

Query string: # inhibition at 500 µM lookup, item `Cc1ccc(-c2nc3ccccc3c(=O)n2N)cc1`
Result string: 92.4

[a] Nn1c(-c2ccc(F)cc2)nc2ccccc2c1=O
[b] Nn1c(-c2cccc([N+](=O)[O-])c2)nc2ccccc2c1=O
Query string: Of a and b , whose reported inhibition at 500 µM is the larger number? Indicate your choice by writing its label.
Result string: b
(b: 94.2%, a: 36.2%)

[I] Nn1c(-c2ccccc2[N+](=O)[O-])nc2ccccc2c1=O
[II] Nn1c(-c2ccccc2F)nc2ccccc2c1=O
Query string: Pick one, I or II : lowest reported inhibition at 500 µM. Indicate your choice by writing its label.
Result string: II
(II: 27.8%, I: 88.5%)

[A] COc1ccc(-c2nc3ccccc3c(=O)n2N)cc1
[B] Nn1c(-c2ccccc2Cl)nc2ccccc2c1=O
Query string: Of A and B , whose reported inhibition at 500 µM is the larger number? Indicate your choice by writing its label.
Result string: A
(A: 89.4%, B: 28.7%)
